target: SIRP-α mouse NOD (mouse (NOD)) (UniProt P97797); assay: SPR, antibody on GLC chip, SIRP as analyte
measuredEndpoint: pKd
Keep in mind that pKd stands for -log10 of concentration in molar terms.

Given the entry Anti-SIRP-α antibody 136, light chain Mut_Q38E, heavy chain Mut (antibody, V domains shown) VH: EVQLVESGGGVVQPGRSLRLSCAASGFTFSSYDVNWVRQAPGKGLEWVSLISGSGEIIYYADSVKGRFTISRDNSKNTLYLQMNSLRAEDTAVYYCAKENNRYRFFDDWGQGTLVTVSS VL: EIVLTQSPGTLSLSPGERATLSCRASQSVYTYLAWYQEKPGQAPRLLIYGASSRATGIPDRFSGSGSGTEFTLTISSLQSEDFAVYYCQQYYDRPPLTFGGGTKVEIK , report its measured pKd. 8.22

Given the entry Anti-SIRP-α antibody 136, light chain Mut_S12T, heavy chain Mut (antibody, V domains shown) VH: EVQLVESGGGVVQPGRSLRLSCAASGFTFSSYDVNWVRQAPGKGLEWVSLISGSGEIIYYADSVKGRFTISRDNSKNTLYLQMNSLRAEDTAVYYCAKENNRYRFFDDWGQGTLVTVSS VL: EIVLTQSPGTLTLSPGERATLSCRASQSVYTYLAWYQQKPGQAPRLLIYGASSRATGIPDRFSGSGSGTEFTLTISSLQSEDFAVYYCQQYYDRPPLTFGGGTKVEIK , report its measured pKd. 8.54

Given the entry Hum1/AB21_HC_Mutall (antibody, V domains shown) VH: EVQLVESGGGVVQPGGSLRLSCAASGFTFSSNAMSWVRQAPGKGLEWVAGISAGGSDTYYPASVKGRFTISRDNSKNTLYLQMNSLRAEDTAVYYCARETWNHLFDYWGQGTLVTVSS VL: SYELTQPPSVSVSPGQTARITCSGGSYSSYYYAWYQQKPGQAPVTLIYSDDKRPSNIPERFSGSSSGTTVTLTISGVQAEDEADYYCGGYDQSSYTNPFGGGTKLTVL , report its measured pKd. 8.43

Given the entry Anti-SIRP-α antibody 136, light chain Mut_S22T, heavy chain Mut (antibody, V domains shown) VH: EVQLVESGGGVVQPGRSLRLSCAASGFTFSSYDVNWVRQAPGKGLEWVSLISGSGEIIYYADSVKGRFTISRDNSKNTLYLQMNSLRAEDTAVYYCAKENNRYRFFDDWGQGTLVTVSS VL: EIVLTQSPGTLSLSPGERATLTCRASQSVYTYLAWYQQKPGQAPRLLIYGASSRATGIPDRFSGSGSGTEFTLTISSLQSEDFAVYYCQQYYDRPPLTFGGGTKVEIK , report its measured pKd. 8.62

Given the entry Anti-SIRP-α antibody 136, light chain Mut_I2T, heavy chain Mut_V34M (antibody, V domains shown) VH: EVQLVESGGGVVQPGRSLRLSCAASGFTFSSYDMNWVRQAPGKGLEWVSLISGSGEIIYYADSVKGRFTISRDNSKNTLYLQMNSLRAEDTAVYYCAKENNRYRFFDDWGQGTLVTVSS VL: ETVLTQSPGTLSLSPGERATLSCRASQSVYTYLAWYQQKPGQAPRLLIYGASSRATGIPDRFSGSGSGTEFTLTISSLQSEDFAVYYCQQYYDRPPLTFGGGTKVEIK , report its measured pKd. 9.22

Given the entry Anti-SIRP-α antibody 136, light chain wt, heavy chain Mut (antibody, V domains shown) VH: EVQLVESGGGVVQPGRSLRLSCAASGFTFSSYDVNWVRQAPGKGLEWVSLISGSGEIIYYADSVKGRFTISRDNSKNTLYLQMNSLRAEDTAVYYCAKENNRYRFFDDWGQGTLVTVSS VL: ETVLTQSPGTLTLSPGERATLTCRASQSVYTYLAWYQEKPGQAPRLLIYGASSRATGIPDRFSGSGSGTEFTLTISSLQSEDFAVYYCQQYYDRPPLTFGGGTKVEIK , report its measured pKd. 9.17
